Target: PAK2 (PAK65) (Homo sapiens, UniProt Q13177)
Sequence (Q13177 whole entry): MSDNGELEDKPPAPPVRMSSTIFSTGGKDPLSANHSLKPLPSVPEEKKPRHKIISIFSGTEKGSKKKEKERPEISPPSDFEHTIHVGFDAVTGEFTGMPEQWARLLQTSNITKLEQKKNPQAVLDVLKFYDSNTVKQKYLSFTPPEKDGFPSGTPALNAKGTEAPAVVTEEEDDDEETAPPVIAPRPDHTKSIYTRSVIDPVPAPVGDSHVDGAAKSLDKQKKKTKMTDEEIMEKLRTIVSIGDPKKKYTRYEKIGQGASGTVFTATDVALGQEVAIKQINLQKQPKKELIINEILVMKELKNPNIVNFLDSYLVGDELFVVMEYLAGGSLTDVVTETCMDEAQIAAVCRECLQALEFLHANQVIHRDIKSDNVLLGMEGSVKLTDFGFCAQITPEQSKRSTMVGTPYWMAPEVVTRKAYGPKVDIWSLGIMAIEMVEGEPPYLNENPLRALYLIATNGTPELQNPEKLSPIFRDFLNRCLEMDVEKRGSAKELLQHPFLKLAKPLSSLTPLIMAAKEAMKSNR
Test: In vitro PAK inhibition assay (Z'-LYTE, SelectScreen), PAK2
Type: biochemical
Conditions: read-out: PAK2 IC50
pIC50: −log10 of the molar value.
Give measured pIC50 for each item. Keep answers brief.

Exam item: Recorded pIC50 for CCn1c(=O)c(-c2ccc(-c3ccncc3C)cc2Cl)cc2cnc(NC3CCOCC3)nc21 [Example 46] , please?
Marked response: 5.30 to 6.30

Exam item: How about Cc1cncc(-c2ccc(-c3cc4cnc(N[C@H]5CCOC5)nc4n([C@H]4CC[C@H](N)CC4)c3=O)c(Cl)c2)n1 [Example 110] ?
Marked response: > 7.30

Exam item: Subsequent entry: CCn1c(=O)c(-c2ccc(-c3nccnc3C)cc2Cl)cc2cnc(NC3CCN(C)C(=O)C3)nc21 (stereo not shown) [Example 35]
Marked response: 6.30 to 7.30

Exam item: Try this compound next: CCNc1ncc2cc(-c3ccc(-c4nccnc4C)cc3Cl)c(=O)n(CC)c2n1 [Example 6]
Marked response: 6.30 to 7.30
